The reported measurements were obtained from ChEMBL document CHEMBL2150945.

# Tested on: Candida albicans
# procedure details: Antifungal activity against Candida albicans MTCC 227 after 2 to 3 days by modified agar well diffusion method
# Format: functional
Categories are defined by ranges of MIC, namely lower band: < 60 µg/mL; central band: ≥ 60 µg/mL and < 80 µg/mL; upper band: ≥ 80 µg/mL

INSERT INTO measurements (molecule, label_value) VALUES
  ('COc1cc(OC)c2c(=O)cc(CN3CCN(c4ncccn4)CC3)oc2c1', 'upper band'),
  ('COc1cc(OC)c2c(=O)cc(CN3CCN(C(C)=O)CC3)oc2c1', 'central band'),
  ('COc1ccc2oc(N3CCN(C)CC3)cc(=O)c2c1', 'upper band'),
  ('Clc1ccc(COC(Cn2ccnc2)c2ccc(Cl)cc2Cl)c(Cl)c1 (stereo not given)', 'lower band'),
  ('COc1ccc2oc(N3CCN(c4ccccc4)CC3)cc(=O)c2c1', 'upper band'),
  ('COc1ccc(N2CCN(Cc3cc(=O)c4c(OC)cc(OC)cc4o3)CC2)cc1', 'upper band'),
  ('COc1cc(OC)c2c(=O)cc(CN3CCN(c4ccccn4)CC3)oc2c1', 'upper band'),
  ('COc1cc(OC)c2c(=O)cc(CN3CCOCC3)oc2c1', 'upper band'),
  ('COc1ccc2oc(NCCN3CCCC3)cc(=O)c2c1', 'lower band'),
  ('COc1cc(OC)c2c(=O)cc(CNC3CCN(Cc4ccccc4)CC3)oc2c1', 'lower band'),
  ('COc1ccc2oc(N3CCN(Cc4ccccc4)CC3)cc(=O)c2c1', 'lower band'),
  ('COc1ccc2oc(N3CCN(c4ncccn4)CC3)cc(=O)c2c1', 'upper band'),
  ('COc1ccc2oc(N3CCN(c4ccccc4)CC3C#N)cc(=O)c2c1 (stereo not given)', 'lower band'),
  ('COc1ccc(N2CCN(c3cc(=O)c4cc(OC)ccc4o3)CC2)cc1', 'upper band'),
  ('COc1cc(OC)c2c(=O)cc(CN3CCN(C)CC3)oc2c1', 'central band'),
  ('CCN1CCN(Cc2cc(=O)c3c(OC)cc(OC)cc3o2)CC1', 'lower band'),
  ('COc1cc(OC)c2c(=O)cc(CN3CCN(C/C=C/c4ccccc4)CC3)oc2c1', 'upper band'),
  ('CCN1CCN(c2cc(=O)c3cc(OC)ccc3o2)CC1', 'central band'),
  ('COc1ccc2oc(NC3CCN(Cc4ccccc4)CC3)cc(=O)c2c1', 'lower band');
